Would you kindly list relative viability for each of these molecules?
Test system: NCI-H838
test.method.notes: relative viability (nuclei count vs DMSO), 5 days (fraction); higher = more cells survive
experimental.parameters: first compound 0.08 µM
Give bare numbers.

Solved entries:
Oc1nc(-c2ccc(C(F)(F)F)cc2)nc2c1CSCC2 [XAV939] + CC(=O)c1c(C)c2cnc(Nc3ccc(N4CCNCC4)cn3)nc2n(C2CCCC2)c1=O [Palbociclib] (partner 0.5 µM); 0.217
C=C1C(=O)O[C@@H](CCCCCCCC)[C@@H]1C(=O)O [C-75] + CS(=O)(=O)N1CCN(Cc2cc3nc(-c4cccc5[nH]ncc45)nc(N4CCOCC4)c3s2)CC1 [Pictilisib] (partner 1 µM); 0.43

Lab note: each molecule below needs its relative viability filled in.
1. Oc1nc(-c2ccc(C(F)(F)F)cc2)nc2c1CSCC2 [XAV939] + NC(=O)Nc1cc(-c2cccc(F)c2)sc1C(=O)N[C@H]1CCCNC1 [AZD7762] (partner 0.2 µM)
2. C=C1C(=O)O[C@@H](CCCCCCCC)[C@@H]1C(=O)O [C-75] + O=C(CCCCCCC(=O)Nc1ccccc1)NO [Vorinostat] (partner 1 µM)

Response line:
1: 0.93; 2: 0.761

Prompt line: What value of measured relative viability is listed for C=C1C(=O)O[C@@H](CCCCCCCC)[C@@H]1C(=O)O [C-75] + CC(C)C[C@H](NC(=O)[C@H](Cc1ccccc1)NC(=O)c1cnccn1)B(O)O [Bortezomib] (partner 0.002 µM) ?
Response line: 0.66
